System: CCRIS mutagenicity, Ames/micronucleus/aberration tests
Assay: CCRIS mutagenicity studies
Settings: Test System: AMES SALMONELLA TYPHIMURIUM; Strain/Indicator: TA98; Metabolic Activation: NONE
Active and inactive are the calls of the source. No rule for the calls is given here.
Lab note: assign the record to one of active, inactive

Below are worked cases with known answers.
molecule: C#C[C@]1(O)CC[C@H]2[C@@H]3CCC4=CC(=O)CC[C@@H]4[C@H]3CC[C@@]21C
class: inactive

molecule: CC(=O)OCC(=O)NCCCOc1cccc(CN2CCCCC2)c1
class: inactive

molecule: Nc1ccc(N)cc1
class: inactive

molecule: CC(C)=CC1C(C(=O)OCc2cccc(Oc3ccccc3)c2)C1(C)C (stereo unspecified)
class: inactive

molecule: CC(=O)Nc1ccc(OCC(O)CNC(C)C)cc1 (stereo unspecified)
class: inactive

Recorded test outcome, item O=C1OCCN1N=Cc1ccc([N+](=O)[O-])o1
active

Try this molecule too: O=C(O)CC(Cl)C(=O)O (stereo unspecified)
inactive

Try this molecule too: CCNc1nc(Cl)nc(NC(C)C)n1
inactive

Try this molecule too: Cc1ccc2n[nH]nc2c1
inactive

Try this molecule too: CC(C)=CC1C(C(=O)OCc2coc(Cc3ccccc3)c2)C1(C)C (stereo unspecified)
inactive

Try this molecule too: C=C(C)C
inactive

Try this molecule too: O=C1CCCc2cc3c(cc21)c([N+](=O)[O-])cc1ccccc13
active

Try this molecule too: CCCN(CCC)c1c([N+](=O)[O-])cc(C(F)(F)F)cc1[N+](=O)[O-]
inactive

Try this molecule too: COS(=O)(=O)OC
active

Try this molecule too: CC(C)COP(=S)(OCC(C)C)SCCl
inactive

Try this molecule too: CC(C)(Oc1ccc(C2CCCc3ccccc32)cc1)C(=O)O (stereo unspecified)
inactive

====

System: CCRIS mutagenicity, Ames/micronucleus/aberration tests
Experiment: CCRIS mutagenicity studies
Details: Test System: AMES SALMONELLA TYPHIMURIUM; Strain/Indicator: TA102; Metabolic Activation: NONE; Method: PREINCUBATION
Calls of active or inactive are those of the source. The rule behind the calls is not given here.
Lab note: assign the record to one of class 1 (active), class 0 (inactive)

Below are worked cases with known answers.
compound: CCC(CO)[N+](=O)[O-] (configuration not stated)
class: class 0
//
compound: N[C@@H](CSc1c(Cl)c(Cl)c(Cl)c(Cl)c1Cl)C(=O)O
class: class 0
//
compound: COc1ccc(/C=N/n2nnc3c([nH]c4ccccc43)c2=O)cc1
class: class 0
//
compound: CC(=O)OC(C)(C)C
class: class 0
//
compound: COc1ccc(C=O)cc1
class: class 0

Recorded test outcome, item O=C(O)O
class 0

Try this compound too: O=C1CN(CCN2CC(=O)N(CN3CCOCC3)C(=O)C2)CC(=O)N1CN1CCOCC1
class 1

Try this compound too: Cc1ccc(C(=O)c2cc(O)c(O)c([N+](=O)[O-])c2)cc1
class 0

Try this compound too: Cc1c2cccc(C)c2nc2c1ccc1ccccc12
class 1

Try this compound too: CC(=O)c1c(=O)cc(C)oc1=O
class 0

Try this compound too: O=C=NCCCCCCN=C=O
class 0

====

Tested on: CCRIS mutagenicity, Ames/micronucleus/aberration tests
Assay: CCRIS mutagenicity studies
Conditions: Test System: E.COLI; Strain/Indicator: WP2 UVRA; Metabolic Activation: NONE; Method: PREINCUBATION
The source made the active and inactive calls. No rule for the calls is given here.
Lab note: assign the record to one of t (active), f (inactive)

molecule smiles: O=C(Cl)c1ccccc1
class: t

molecule smiles: O=C(O)c1c(Cl)cccc1Cl
class: f

molecule smiles: O=C(O)c1ccccc1Cl
class: f

molecule smiles: O=C(Cl)c1c(Cl)cccc1Cl
class: t

Recorded test outcome, item O=C(O)c1cccc(Cl)c1
f

====

Test system: CCRIS mutagenicity, Ames/micronucleus/aberration tests
Test: CCRIS mutagenicity studies
Details: End Point: IN VITRO CHROMOSOMAL ABERRATIONS; Test System: HUMAN PERIPHERAL LYMPHOCYTES; Metabolic Activation: NONE
Activity calls are given as the source filed them. How the calls were made is not given here.
Lab note: assign the record to one of 1 = active, -1 = inactive

Below are worked cases with known answers.
molecule smiles: C#C[C@]1(O)CC[C@H]2[C@@H]3CCc4cc(OC)ccc4[C@H]3CC[C@@]21C
target desc: CCRIS mutagenicity, Ames/micronucleus/aberration tests
class: 1
//
molecule smiles: C[C@@H]1C[C@H]2[C@@H]3CCC4=CC(=O)C=C[C@]4(C)[C@@]3(F)[C@@H](O)C[C@]2(C)[C@@]1(O)C(=O)CO
target desc: CCRIS mutagenicity, Ames/micronucleus/aberration tests
class: 1
//
molecule smiles: CN(C)c1ccc([C@H]2C[C@@]3(C)[C@@H](CC[C@@]3(O)/C=C\CO)[C@@H]3CCC4=CC(=O)CCC4=C32)cc1
target desc: CCRIS mutagenicity, Ames/micronucleus/aberration tests
class: -1

Then there is this compound:
Recorded test outcome, item O=[N+]([O-])c1ccc(Cl)cc1
-1

====

Tested on: CCRIS mutagenicity, Ames/micronucleus/aberration tests
Test: CCRIS mutagenicity studies
Conditions: Test System: AMES SALMONELLA TYPHIMURIUM; Strain/Indicator: TA100; Metabolic Activation: RAT, LIVER, S-9, PHENOBARBITAL; Method: PREINCUBATION
Calls of active or inactive are those of the source. No rule for the calls is given here.
Lab note: assign the record to one of T for active, F for inactive

molecule smiles: C/C(O)=C1/C(=O)[C@@H]2[C@H]3c4c[nH]c5cccc(c45)C[C@H]3C(C)(C)N2C1=O
class: F
//
molecule smiles: Cc1ccccc1N=Nc1ccc(N)c(C)c1N
class: T

Recorded test outcome, item CC[C@H]1OC(=O)[C@H](C)[C@@H](O[C@H]2C[C@@](C)(OC)[C@@H](O)[C@H](C)O2)[C@H](C)[C@@H](O[C@@H]2O[C@H](C)C[C@H](N(C)C)[C@H]2O)[C@](C)(O)C[C@@H](C)/C(=N\OCOCCOC)[C@H](C)[C@@H](O)[C@]1(C)O
F

Try this compound too: Nc1ccc(Cc2ccc(N)cc2)cc1
T

Try this compound too: CN(C)N=O
T

====

Tested on: CCRIS mutagenicity, Ames/micronucleus/aberration tests
Assay: CCRIS mutagenicity studies
Conditions: Test System: AMES SALMONELLA TYPHIMURIUM; Strain/Indicator: TA100; Metabolic Activation: RAT, LIVER, S-9, AROCLOR 1254; Method: STANDARD PLATE
Active and inactive are the calls of the source. How the calls were made is not given here.
Lab note: assign the record to one of active, inactive

Below are worked cases with known answers.
molecule: CCOS(C)(=O)=O
class: active

molecule: c1ccc2cc3cc4ccccc4cc3cc2c1
class: active

molecule: C=CC(=O)OCCCC
class: inactive

molecule: CCN(CC)c1ccc(N=Nc2ccc(N=Nc3c(S(=O)(=O)O)cc4ccc(N)cc4c3O)c(OC)c2)cc1
class: inactive

Recorded test outcome, item Cc1ccccc1OCC(O)CNCCOc1ccc(C(N)=O)cc1 (configuration not stated)
inactive

Try this molecule too: C/C=N/O
inactive

Try this molecule too: ClC1=C(Cl)[C@]2(Cl)[C@@H]3[C@@H]4C[C@@H]([C@H]5O[C@@H]45)[C@@H]3[C@@]1(Cl)C2(Cl)Cl
inactive

Try this molecule too: O=C(O)CN(CCN(CC(=O)O)CC(=O)O)CC(=O)O
inactive

Try this molecule too: CC(=O)Nc1ccc([C@@H]2O[C@@H]2C(=O)c2ccccc2)cc1
active

Try this molecule too: CCCCC(CC)COC(=O)CCCCC(=O)O (configuration not stated)
inactive

====

Tested on: CCRIS mutagenicity, Ames/micronucleus/aberration tests
Test: CCRIS mutagenicity studies
Settings: Test System: AMES SALMONELLA TYPHIMURIUM; Strain/Indicator: TA100; Method: PREINCUBATION
Calls of active or inactive are those of the source. No rule for the calls is given here.
Lab note: assign the record to one of true for active, false for inactive

Below are worked cases with known answers.
molecule smiles: Cc1cc2nc3cc(C)c(N)cc3[n+](-c3ccccc3)c2cc1N
class: true
--
molecule smiles: CC(C)(C#N)C(C)(C)C#N
class: false

Recorded test outcome, item CNc1ccc(C(=C2C=CC(=[N+](C)C)C=C2)c2ccc(N(C)C)cc2)cc1
true

Try this compound too: O=Cc1ccccc1[N+](=O)[O-]
false

Try this compound too: CCN(CC)c1ccc(C(=C2C=CC(=[N+](CC)CC)C=C2)c2ccccc2)cc1
true

====

System: CCRIS mutagenicity, Ames/micronucleus/aberration tests
Test: CCRIS mutagenicity studies
Conditions: Test System: AMES SALMONELLA TYPHIMURIUM; Strain/Indicator: TA100; Metabolic Activation: RAT, LIVER, S-9, PCB; Method: PREINCUBATION
Calls of active or inactive are those of the source. How the calls were made is not given here.
measured parameter: mutagenic call

molecule smiles: Nc1nc(-c2ccc([N+](=O)[O-])cc2)nc2nc[nH]c12
endpoint result: active; positive
//
molecule smiles: Nc1nc(-c2ccc([N+](=O)[O-])cc2)nc2c1ncn2[C@@H]1O[C@H](CO)[C@@H](O)[C@H]1O
endpoint result: active; positive
//
molecule smiles: Cc1c(O)cc2c(c1O)C(=O)c1ccccc1C2=O
endpoint result: active; positive
